Data origin, for the record: ChEMBL document CHEMBL5291721

Task for the reader: assign each of the following compounds its reported AC50.
- system.tested: 3',5'-cyclic-AMP phosphodiesterase 4D (Homo sapiens, UniProt Q08499); further: assay procedure not described here
- Sequence (Q08499 whole entry): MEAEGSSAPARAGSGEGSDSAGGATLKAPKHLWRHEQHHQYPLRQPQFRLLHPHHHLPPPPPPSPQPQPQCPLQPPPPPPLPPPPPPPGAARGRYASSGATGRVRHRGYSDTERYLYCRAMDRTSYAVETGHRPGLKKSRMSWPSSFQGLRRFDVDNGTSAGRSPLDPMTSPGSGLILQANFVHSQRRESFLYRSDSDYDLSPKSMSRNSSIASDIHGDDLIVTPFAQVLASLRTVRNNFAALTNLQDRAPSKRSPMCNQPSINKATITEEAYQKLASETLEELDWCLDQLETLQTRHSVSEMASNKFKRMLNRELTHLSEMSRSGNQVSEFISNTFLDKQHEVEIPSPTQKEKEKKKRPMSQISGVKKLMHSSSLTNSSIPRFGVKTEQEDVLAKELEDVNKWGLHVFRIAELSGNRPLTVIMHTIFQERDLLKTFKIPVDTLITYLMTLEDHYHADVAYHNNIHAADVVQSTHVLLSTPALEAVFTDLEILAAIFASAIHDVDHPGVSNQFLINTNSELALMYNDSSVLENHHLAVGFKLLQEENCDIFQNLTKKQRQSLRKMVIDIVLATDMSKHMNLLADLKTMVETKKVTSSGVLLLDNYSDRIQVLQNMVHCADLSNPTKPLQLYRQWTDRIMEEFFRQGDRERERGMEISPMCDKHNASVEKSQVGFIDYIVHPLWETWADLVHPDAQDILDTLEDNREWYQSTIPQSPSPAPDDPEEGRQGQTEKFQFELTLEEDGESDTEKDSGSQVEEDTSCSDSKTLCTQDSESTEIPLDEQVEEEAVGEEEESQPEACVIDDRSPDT
- Format: functional

Study these solved cases before continuing.
CN1C[C@H](C(=O)N[C@]2(C)O[C@@]3(O)[C@@H]4CCCN4C(=O)[C@H](Cc4ccccc4)N3C2=O)C[C@@H]2c3cccc4[nH]cc(c34)C[C@H]21 [DIHYDROERGOTAMINE]	6.7 µM
C=C(C)[C@@H]1CCC(C)=C[C@H]1c1c(O)cc(CCCCC)cc1O [CANNABIDIOL]	> 30 µM
CC1(C)C(/C=C/C=C/C=C/C=C2\N(CCCCS(=O)(=O)O)c3ccc4ccccc4c3C2(C)C)=[N+](CCCCS(=O)(=O)[O-])c2ccc3ccccc3c21 [INDOCYANINE GREEN ACID FORM]	2.3 µM
CC(=O)c1ccc2c(c1)N(CCCN1CCC(CCO)CC1)c1ccccc1S2 [PIPERACETAZINE]	> 30 µM
OCCN1CCN(CC/C=C2/c3ccccc3Sc3ccc(Cl)cc32)CC1 [ZUCLOPENTHIXOL]	> 10 µM

Batch lookup, AC50 per entry.
1. CC(C)=CCOc1ccc(/C=C/C(=O)c2ccc(OCC=C(C)C)cc2OCC(=O)O)cc1 [SOFALCONE]
2. C=C[C@@]1(C)CC(=O)[C@]2(O)[C@@]3(C)[C@@H](O)CCC(C)(C)[C@@H]3[C@H](OC(=O)CCN(C)C)[C@H](OC(C)=O)[C@@]2(C)O1
3. CC(=O)OCC(=O)[C@@]1(O)CC[C@H]2[C@@H]3CCC4=CC(=O)CC[C@]4(C)C3=CC[C@@]21C [ANECORTAVE ACETATE]

Given back:
1. > 30 µM
2. > 30 µM
3. > 30 µM

# batch: return AC50 for each of the 7 compounds below
1. CC(=O)O[C@H]1C[C@@H]2CC[C@@H]3[C@H](CC[C@@]4(C)[C@H]3C[C@H]([N+]3(C)CCCCC3)[C@@H]4OC(C)=O)[C@@]2(C)C[C@@H]1[N+]1(C)CCCCC1 [PANCURONIUM]
2. Clc1ccc2c(c1)C(c1ccccc1)=NCc1nncn1-2 [ESTAZOLAM]
3. CC(C)(C)NC[C@H](O)COc1nsnc1N1CCOCC1 [TIMOLOL]
4. C[C@]12CC[C@H](O)CC1=CC[C@@H]1[C@@H]2CC[C@]2(C)C(c3cccnc3)=CC[C@@H]12 [ABIRATERONE]
5. C=CC1=C(C(=O)O)N2C(=O)[C@@H](NC(=O)/C(=N\OCC(=O)O)c3csc(N)n3)[C@H]2SC1 [CEFIXIME]
6. CNC[C@H](O)c1cccc(O)c1 [PHENYLEPHRINE]
7. O=C1Nc2ccc(Cl)cc2C(c2ccccc2)=NC1O (stereo not given) [OXAZEPAM]

Given back:
> 30 µM
10 µM
> 30 µM
> 30 µM
> 30 µM
> 30 µM
> 10 µM
